system under test: rat acyl CoA cholesterol acyltransferase
assay remarks: Inhibitory action on rat acyl CoA cholesterol acyltransferase (rat liver microsome crude enzyme, [1-14C]oleoyl-CoA)
condition context: rat liver microsome fraction, pH 7.4, 37° C., 30 minutes, 30 μM oleoyl-CoA, 30 μM cholesterol; read-out: IC50 (50% inhibition concentration on the enzyme)
property label: pIC50
Keep in mind that pIC50 stands for -log10 of concentration in molar terms.

Example entries and their recorded answers appear below.
Asked: Recorded pIC50 for CCC(=O)OCC1(C)C(OC(C)=O)CCC2(C)C1CC(OC(C)=O)C1(C)Oc3cc(-c4cccnc4)oc(=O)c3C(O)C21 (stereo not shown) [FO-1289B] , please?
Given back: 7.00

Asked: Repeat for the following molecule: CCC(=O)OC1CCC2(C)C(CC(OC(C)=O)C3(C)Oc4cc(-c5cccnc5)oc(=O)c4C(O)C23)C1(C)COC(C)=O (stereo not shown) [FO-1289D]
Given back: 6.82

Asked: Repeat for the following molecule: CCC(=O)OC1CC2C(C)(COC(C)=O)C(OC(C)=O)CCC2(C)C2C(O)c3c(cc(-c4cccnc4)oc3=O)OC12C (stereo not shown) [FO-1289C]
Given back: 7.52

From here, focus on the item given below.
Asked: Recorded pIC50 for CC(=O)OCC1(C)C(OC(C)=O)CCC2(C)C1CC(OC(C)=O)C1(C)Oc3cc(-c4cccnc4)oc(=O)c3C(O)C21 (stereo not shown) [FO-1289A] , please?
Given back: 7.40
